Biological target: recombinant human NR2F6 protein (Homo sapiens)
Sequence (P10588 whole entry): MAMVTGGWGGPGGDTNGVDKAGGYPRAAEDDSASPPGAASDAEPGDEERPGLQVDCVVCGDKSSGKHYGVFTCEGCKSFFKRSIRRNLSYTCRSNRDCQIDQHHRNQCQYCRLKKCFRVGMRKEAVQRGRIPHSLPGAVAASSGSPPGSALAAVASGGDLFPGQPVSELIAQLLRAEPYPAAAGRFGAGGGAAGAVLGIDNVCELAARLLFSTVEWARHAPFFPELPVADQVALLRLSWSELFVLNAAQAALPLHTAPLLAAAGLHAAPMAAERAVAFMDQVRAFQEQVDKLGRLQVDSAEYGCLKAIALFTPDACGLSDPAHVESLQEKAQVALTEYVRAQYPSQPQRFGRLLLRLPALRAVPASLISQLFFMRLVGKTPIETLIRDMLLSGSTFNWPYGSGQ
Assay: Biochemical NR2F6 binding assay (EnSpire label-free)
Settings: label-free binding to immobilized purified recombinant human NR2F6; ligands 1 nM to 100 uM, 1% DMSO
Protocol: Purified recombinant human NR2F6 protein was dissolved in immobilization buffer at pH 4.5 and then immobilized in EnSpire-LFB High-Sensitivity User-Activated Plates at the concentration of 50 μg/well plate and left in incubation for 16 h at 4° C. […] The final readings were taken over a period of 30 minutes. The label-free responses were measured as shifts in reflected wavelength and are expressed in picometers (pm). […]
Where a name gives a salt, the structure may show the parent alone.
measurement kind: EC50

Some solved cases for reference:
compound	experimental system	measurement kind	result
CN1C[C@@H](C(=O)Nc2cccc(-c3cccnc3)c2)[C@H](c2ccccc2)C1 (racemic) [Compound I-46]	recombinant human NR2F6 protein (Homo sapiens)	EC50	> 50 µM
O=C(Nc1ccc(-c2ccc(F)nc2)cc1)[C@@H]1CNC[C@H]1c1ccccc1 [Compound I-108, dihydrochloride]	recombinant human NR2F6 protein (Homo sapiens)	EC50	< 1 µM
O=C(Nc1cccc2ccccc12)[C@H]1CNC[C@@H]1c1ccccc1 [Compound I-74, hydrochloride]	recombinant human NR2F6 protein (Homo sapiens)	EC50	1 to 10 µM
O=C(Nc1cccc(Oc2ccc(C(F)(F)F)nc2)c1)[C@H]1CNC[C@@H]1c1ccccc1 (racemic) [Compound I-104, dihydrochloride]	recombinant human NR2F6 protein (Homo sapiens)	EC50	< 1 µM
O=C(N[C@H]1C[C@H](Oc2ccc(F)cc2)C1)[C@H]1CNC[C@@H]1c1ccccc1 (racemic) [Compound I-91, hydrochloride]	recombinant human NR2F6 protein (Homo sapiens)	EC50	1 to 10 µM
O=C(Nc1cccc(-c2ccccc2)c1)[C@@H]1CNC[C@H]1c1ccccc1 (racemic) [Compound I-13]	recombinant human NR2F6 protein (Homo sapiens)	EC50	1 to 10 µM

IN: Quick check: EC50 on recombinant human NR2F6 protein (Homo sapiens), item O=C(Nc1cccc(-c2ccc(F)nc2)c1)[C@@H]1CNC[C@H]1c1ccccc1 (racemic) [Compound I-26] ?
OUT: 1 to 10 µM

Data credit: patent US20220213061A9
